# TEST_DETAILS: Cytotoxicity against human HCT15 cells after 72 hrs by MTT assay
# Format: functional, cell-based
# ASSAY_SETUP: HCT-15, 72 h
Record form. Attribute: IC50. Fill in for each entry.

Batch request: IC50 per item, same order as input.
1. COc1cc([C@@H]2c3cc4c(cc3[C@@H](O[C@@H]3O[C@@H]5CO[C@@H](C)O[C@H]5[C@H](O)[C@H]3O)[C@H]3COC(=O)[C@H]23)OCO4)cc(OC)c1O [ETOPOSIDE]
2. C[C@@]1(O)CC(=O)c2c(cc3ccc(-c4c5c(c(O)c6c(O)cccc46)C(=O)C[C@@](C)(O)C5)c(O)c3c2O)C1

Outgoing:
4.6 µM
4.9 µM

Batch request: IC50 per item, same order as input.
1. Cc1cc(O)c2c(c1)Cc1ccc(C3c4cccc(O)c4C(=O)c4c(O)cc(C)cc43)c(O)c1C2=O (stereo unspecified)
2. COc1cccc2c1C(=O)C1=C(C[C@H](C)O[C@@H]1C)C2(OC)c1ccc2cc3c(c(O)c2c1O)C(=O)C[C@@](C)(O)C3 (stereo partly specified)

Outgoing:
> 10 µM
4.6 µM

Batch request: IC50 per item, same order as input.
1. COc1cc(OC)c2c(O)c(C(C)=O)c(C)cc2c1
2. COc1cc(C)cc2c1C(=O)c1c(O)cccc1C2=O

Outgoing:
["> 10 µM", "> 10 µM"]
